// provenance: ChEMBL document CHEMBL1961873

# STUDY_TARGET: NUAK family SNF1-like kinase 1 (Homo sapiens) (UniProt O60285)
# Sequence (whole entry): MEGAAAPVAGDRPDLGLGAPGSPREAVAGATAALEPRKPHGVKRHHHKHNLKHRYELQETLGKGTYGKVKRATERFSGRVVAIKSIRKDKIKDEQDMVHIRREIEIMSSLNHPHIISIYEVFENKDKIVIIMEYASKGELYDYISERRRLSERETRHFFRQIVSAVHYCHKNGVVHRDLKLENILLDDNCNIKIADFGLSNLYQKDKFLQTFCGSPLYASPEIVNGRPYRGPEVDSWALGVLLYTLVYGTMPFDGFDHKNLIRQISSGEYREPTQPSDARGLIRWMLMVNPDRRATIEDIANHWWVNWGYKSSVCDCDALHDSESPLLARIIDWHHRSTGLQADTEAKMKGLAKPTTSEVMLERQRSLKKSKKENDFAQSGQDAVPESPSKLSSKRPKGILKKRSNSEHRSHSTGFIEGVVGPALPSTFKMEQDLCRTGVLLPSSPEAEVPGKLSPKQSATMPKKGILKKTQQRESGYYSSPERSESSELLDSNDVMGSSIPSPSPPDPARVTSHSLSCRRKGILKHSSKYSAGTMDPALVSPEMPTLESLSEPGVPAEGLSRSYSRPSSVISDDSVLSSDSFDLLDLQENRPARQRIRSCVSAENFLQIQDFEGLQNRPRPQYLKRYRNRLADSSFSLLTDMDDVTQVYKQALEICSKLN
# EXPERIMENTAL_CONDITIONS: at 1 µM
# Description: GSK_PKIS: ARK5 mean inhibition at 1 uM [Nanosyn]
Label scheme for inhibition: lower than 10% is condition not met, 10% and above is condition met.

NC(=O)c1sc(-n2cnc3cc(C(F)(F)F)ccc32)cc1OCc1ccccc1Br
condition not met

Query block: State whether the measured inhibition reaches 10%, counting equality as reaching it, for `Cc1cc(-c2ccco2)cc(C)c1/C=C/c1cncc(-c2nn[nH]n2)c1`
Result block: condition not met

Query block: For this compound, is measured inhibition 10% or higher? `NS(=O)(=O)c1ccc(N/C=C2\C(=O)Nc3ccc4ncsc4c32)cc1`
Result block: condition met

Query block: Does `COc1cccc(COc2cc(-n3cnc4ccccc43)sc2C(N)=O)c1` have a reported inhibition of at least 10%?
Result block: condition not met

Query block: Say whether `COc1cc(C=NNc2ncnc3c2cnn3Cc2ccccc2)ccc1O` shows inhibition of 10% or more.
Result block: condition met

Query block: Is inhibition at least 10%? Consider `CCn1c(-c2nonc2N)nc2c(C#CC(C)(C)O)nc(O[C@@H](CN)c3ccccc3)cc21`
Result block: condition met

Query block: Identify whether the reported inhibition of the following compound is 10% or greater: `COc1cc2c(cc1Nc1nc(Nc3ccsc3C(N)=O)c3cc[nH]c3n1)N(C(=O)CN(C)C)CCC2`
Result block: condition not met

Query block: Kindly determine if inhibition recorded for `Nc1nonc1-c1nc2cnccc2n1C1CCCCC1` is above or exactly 10%.
Result block: condition not met

Query block: Does `CCn1c(-c2nonc2N)nc2c(C#CC(C)(C)O)ncc(OC[C@@H]3CCCN3)c21` have a reported inhibition of at least 10%?
Result block: condition met

Query block: Test whether the compound `CCn1c(-c2nonc2N)nc2c(C#CC(C)(C)O)ncc(OCC3CCNCC3)c21` records inhibition of 10% or higher.
Result block: condition met

Query block: Check the entry `CCn1c(-c2nonc2N)nc2c(C#CCN)ncc(OCCCN)c21` : does inhibition equal or exceed 10%?
Result block: condition met

Query block: Reported inhibition reaches at least 10% for `NS(=O)(=O)c1ccc(-c2ccc3c(NC(=O)C4CC4)n[nH]c3c2)cc1` ?
Result block: condition not met
